- assayed_system: full-length human PIKFYVE (N-terminal GST-fusion) (Homo sapiens (Human), UniProt Q9Y2I7, L932S/Q1183K/Q995L/S1033A/S696N/T998S)
- Sequence (Q9Y2I7 whole entry S696N/L932S/Q995L/T998S/S1033A/Q1183K, the tested form may be a part): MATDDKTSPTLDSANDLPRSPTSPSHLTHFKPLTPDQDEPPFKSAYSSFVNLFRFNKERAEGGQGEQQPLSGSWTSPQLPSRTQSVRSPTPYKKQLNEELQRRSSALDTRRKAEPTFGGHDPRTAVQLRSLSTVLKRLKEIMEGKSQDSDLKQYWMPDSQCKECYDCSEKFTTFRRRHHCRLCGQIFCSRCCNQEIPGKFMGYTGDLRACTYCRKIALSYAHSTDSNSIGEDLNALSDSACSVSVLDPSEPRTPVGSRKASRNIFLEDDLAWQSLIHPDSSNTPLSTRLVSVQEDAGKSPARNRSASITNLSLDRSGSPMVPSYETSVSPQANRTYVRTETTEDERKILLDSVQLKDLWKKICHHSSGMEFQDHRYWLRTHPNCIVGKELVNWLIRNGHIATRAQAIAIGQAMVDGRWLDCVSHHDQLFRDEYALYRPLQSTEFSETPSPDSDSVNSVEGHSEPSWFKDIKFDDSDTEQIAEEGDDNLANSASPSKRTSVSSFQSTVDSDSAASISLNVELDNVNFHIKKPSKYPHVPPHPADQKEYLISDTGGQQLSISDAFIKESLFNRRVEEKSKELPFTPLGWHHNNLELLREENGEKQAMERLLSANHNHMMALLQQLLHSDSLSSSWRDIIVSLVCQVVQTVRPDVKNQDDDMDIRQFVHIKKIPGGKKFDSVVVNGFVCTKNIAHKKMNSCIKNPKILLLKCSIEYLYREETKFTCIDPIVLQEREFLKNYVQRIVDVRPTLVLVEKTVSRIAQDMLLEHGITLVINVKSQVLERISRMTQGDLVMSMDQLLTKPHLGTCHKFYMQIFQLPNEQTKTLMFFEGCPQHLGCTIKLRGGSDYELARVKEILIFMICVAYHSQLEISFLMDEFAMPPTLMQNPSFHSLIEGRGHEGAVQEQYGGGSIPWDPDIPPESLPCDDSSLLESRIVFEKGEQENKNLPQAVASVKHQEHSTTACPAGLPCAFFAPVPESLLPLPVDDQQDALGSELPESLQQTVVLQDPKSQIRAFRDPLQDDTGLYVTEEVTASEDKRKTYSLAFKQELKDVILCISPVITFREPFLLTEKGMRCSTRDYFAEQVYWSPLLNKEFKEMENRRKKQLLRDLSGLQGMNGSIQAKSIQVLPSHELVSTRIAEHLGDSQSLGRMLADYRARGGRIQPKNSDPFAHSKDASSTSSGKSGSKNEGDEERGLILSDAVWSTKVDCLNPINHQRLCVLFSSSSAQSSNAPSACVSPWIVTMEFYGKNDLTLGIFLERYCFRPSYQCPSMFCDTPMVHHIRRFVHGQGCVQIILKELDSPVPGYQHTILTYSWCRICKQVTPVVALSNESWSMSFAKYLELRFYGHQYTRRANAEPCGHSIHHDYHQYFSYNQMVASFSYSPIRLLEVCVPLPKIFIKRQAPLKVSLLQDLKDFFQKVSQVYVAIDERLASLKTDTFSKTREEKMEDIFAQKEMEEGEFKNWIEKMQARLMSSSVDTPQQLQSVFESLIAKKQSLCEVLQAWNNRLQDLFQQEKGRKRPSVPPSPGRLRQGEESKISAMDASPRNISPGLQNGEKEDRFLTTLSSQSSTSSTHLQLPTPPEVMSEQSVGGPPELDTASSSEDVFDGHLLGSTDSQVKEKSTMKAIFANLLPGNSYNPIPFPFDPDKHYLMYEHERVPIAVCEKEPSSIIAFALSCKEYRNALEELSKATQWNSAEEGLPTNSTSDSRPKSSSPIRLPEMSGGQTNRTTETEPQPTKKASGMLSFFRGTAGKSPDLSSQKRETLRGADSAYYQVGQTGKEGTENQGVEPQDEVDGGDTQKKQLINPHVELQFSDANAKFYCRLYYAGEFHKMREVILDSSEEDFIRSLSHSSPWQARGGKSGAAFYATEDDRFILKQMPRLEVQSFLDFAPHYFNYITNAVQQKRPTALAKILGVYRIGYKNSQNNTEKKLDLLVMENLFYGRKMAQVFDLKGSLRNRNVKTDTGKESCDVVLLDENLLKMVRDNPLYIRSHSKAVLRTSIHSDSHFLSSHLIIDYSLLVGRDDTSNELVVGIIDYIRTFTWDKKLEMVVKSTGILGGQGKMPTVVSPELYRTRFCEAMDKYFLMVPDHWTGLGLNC
- assay_details: PIKfyve biochemical assay (ADP-Glo Kinase assay, Carna Biosciences)
- study_conditions: ADP-Glo, full-length human GST-PIKFYVE, 10 μM to 3 nM; read-out: hPIKfyve IC50
- Source text: PIKfyve Biochemical Assay. The biochemical PIKfyve inhibition assays were run by Carna Biosciences according to proprietary methodology based on the Promega ADP-Glo™ Kinase assay. A full-length human PIKFYVE [1-2098(end) amino acids and S696N, L932S, Q995L, T998S, S1033A and Q1183K of the protein having the sequence set forth in NCBI Reference Sequence No. NP_055855.2] was expressed as N-terminal GST-fusion protein (265 kDa) using baculovirus expression system. […]
Counter-ions that a name gives are not always drawn.
reported_metric: IC50

>  <molecule>
c1ccc(-c2nccc(-c3nc(N4CCOCC4)nc4c3CCN4c3cccnc3)n2)cc1 [Compound 124, hydrochloride]

>  <IC50>
10 to 100 nM

$$$$
>  <molecule>
CN1CCC(c2nc(N3CCOCC3)nc3c2CCN3c2cccnc2)CC1

>  <IC50>
1000 to 10000 nM

$$$$

Hi team, please reply with IC50 for each item in this list.
1. CN1CCN(c2nc(N3CCOCC3)nc3c2CCN3c2cccnc2)CC1
2. c1ccc(N2CCc3c(COCc4ccccn4)nc(N4CCOCC4)nc32)cc1
3. c1ccc(-c2nccc(N3CCc4c(Oc5cccnc5)nc(N5CCOCC5)nc43)n2)cc1

Response given:
1. 1000 to 10000 nM
2. 10 to 100 nM
3. 1000 to 10000 nM
